- MEASURED TARGET: T1, human GIP receptor (human, UniProt P48546 22-466)
- T1 sequence (looked up): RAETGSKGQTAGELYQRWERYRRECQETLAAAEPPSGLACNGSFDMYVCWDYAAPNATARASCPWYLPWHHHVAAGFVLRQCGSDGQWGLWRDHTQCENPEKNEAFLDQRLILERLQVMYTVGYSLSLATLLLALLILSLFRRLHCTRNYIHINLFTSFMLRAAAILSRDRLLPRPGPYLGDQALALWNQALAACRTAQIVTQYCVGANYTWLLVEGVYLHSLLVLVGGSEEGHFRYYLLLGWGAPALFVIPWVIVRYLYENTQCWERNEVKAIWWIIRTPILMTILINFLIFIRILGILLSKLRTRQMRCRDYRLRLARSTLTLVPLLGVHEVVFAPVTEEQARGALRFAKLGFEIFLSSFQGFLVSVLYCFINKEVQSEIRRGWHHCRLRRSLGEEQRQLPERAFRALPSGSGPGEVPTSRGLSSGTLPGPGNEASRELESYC
- ASSAY METHOD TEXT: cell-based or functional assay
Square brackets hold non-standard residues; d marks the D form. Ends that are not written are not given here.
Kindly state EC50 hGIP-1 for each of the entries shown.
Numbers only, in nM.

// worked examples, EC50 hGIP-1 included
>>> val("HXQGTFTSDLSKQKDEEAARLFIEWLXAGGPSSGAPPPS (D-Ser at 2; Lys 14 side chain K(γE-γE-x53) = (S)-4-Carboxy-4-((S)-4-carboxy-4-hexadecanoylamino-butyrylamino)-butyryl-; Aib at 27; C-terminal amide) [SEQ ID NO: 9]")
3.6
>>> val("HXQGTFTSDLSKQKDEEAARLFIEWLKAGGPSSGAPPPS (D-Ser at 2; Lys 14 side chain K(γE-γE-x53) = (S)-4-Carboxy-4-((S)-4-carboxy-4-hexadecanoylamino-butyrylamino)-butyryl-; C-terminal amide) [SEQ ID NO: 32]")
0.565
>>> val("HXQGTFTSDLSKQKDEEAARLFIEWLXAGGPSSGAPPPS (D-Ser at 2; Lys 14 side chain K(γE-x70) = (S)-4-Carboxy-4-octadecanoylamino-butyryl-; Aib at 27; C-terminal amide) [SEQ ID NO: 13]")
2.54
>>> val("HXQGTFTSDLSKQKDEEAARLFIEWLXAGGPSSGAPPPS (D-Ser at 2; Lys 14 side chain K(γE-x53) = (S)-4-Carboxy-4-hexadecanoylamino-butyryl-; Aib at 27; C-terminal amide) [SEQ ID NO: 14]")
5.36

Prompt line: Identify EC50 hGIP-1 associated with the binder H[dS]QGTFTSDLSKQLDEEAARLFIEWLKAGGPSSGAPPPS-NH2 [SEQ ID NO: 34]
Response line: 26
